Provide the reported apparent KD of MS2 coat protein of each item.
# Tested on: MS2 coat protein
# experiment_summary: apparent KD of MS2 coat protein; designed switch direction (-1 OFF switch, 1 ON switch): -1; higher = weaker reporter binding
# condition_notes: input ligand: FMN 200 uM
# unit: nM | format: bare number

Reported apparent KD of MS2 coat protein ( GUCCUGGACUAUCACAAGCACAUGAGGAUCACCCAUGUCAUGGGUAGAUUUAUAAAUAAAGAUACUGCUCGUCUUAU [Cac Sensor turn off var1 sub7] (Eterna round: R97, puzzle: Sensor, turn-off variant 1) ) = 197

# apparent KD of MS2 coat protein of CAGUACUGAGGAUAUACAUGAGGAUCACCCAUGUGUUCCGGCUAGGAUACUAGCAAAGGUAGAAGGCAGUACUG [Mat - Exclusion 3 - Eli Mod - D22] (Eterna round: R97, puzzle: Exclusion 3) = 458

Notebook: CUGCUGAAGCUUUGCUUUAGUCGUACAUGAGGAUCACCCAUGUAGGAUAUGGUAGGCUUUGCUUACUAGAAGGAUAGAGUGAUC [salish99_ExNG3_r04_604] (Eterna round: R96, puzzle: Exclusion NG 3) , apparent KD of MS2 coat protein read as 72

Lab book: apparent KD of MS2 coat protein of CUCGUAUUAUACAUGAGGAUCACCCAUGUGGUCACCACUCACGAGGAUAUCCCGGGAAACCGAACGGAGAAGGUGUAGAGUCAU [Eternabot solution 44] (Eterna round: R96, puzzle: Exclusion NG 3) noted as 164

---

# Test system: MS2 coat protein
# experiment_summary: apparent KD of MS2 coat protein, switch ON state; designed switch direction (-1 OFF switch, 1 ON switch): -1; higher = weaker reporter binding
# condition_notes: FMN input: 0 or 200 uM; Eterna round: R93 (includes R88 designs)
Can you tell me apparent KD of MS2 coat protein for the items I'm about to list?
Enter your answer as a number in nM; do not include the unit.

Data point: AAGAAACAUGAGGAUCACCCAUGUGAGGAUAUCGAAGAAAGAAAGAAAGAAAGAAGAACGAGAAGGCACAAAGG [Publius Octavius] ; apparent KD of MS2 coat protein = 42.7

apparent KD of MS2 coat protein in this record for ACCCUGCUAGGAUAUACAGCAGGGAUUCGAAAACCCACGAAACAUGAGGAUCACCCAUGUAGAAGGAGUAGGGA [Bimaat] : 17.5

# apparent KD of MS2 coat protein of AACGAACAUGAGGAUCACCCAUGUCAGGAUAUGCAAAGAACGAUCGAACGAACGAUAAGCAGAAGGGACAGAGA [Amethyst 97] = 27.7

Lab note: measured apparent KD of MS2 coat protein of AACAGUACAGGAUAUACAUGAGGAUCACCCAUGUGAAAAGAAAGUGGCGUACCACAAAGUAGAAGGGUACUGAA [Mat - Exclusion 3 - JL mod - D29] was 25.3

Record summary for AAAGGUUGAGGAUAUGCGUGGAAAAAGUGUAUUCAAAAAAAACAUGAGGAUCACCCAUGUAGAAGGCGACCAAA [MS2 Riboswitches On Chip Exclusion 2 wbt3] : reported apparent KD of MS2 coat protein = 61.9

Given item AAAAAACAUGAGGAUCACCCAUGUUAGGAUAUCGUGCAGAAAAAAAAAAAAAACUGCACGAGAAGGAACAAGGA [Brourd - Exclusion 1 - Sub 2] , the value recorded as its apparent KD of MS2 coat protein is 29.1

---

# Tested on: MS2 coat protein
# experiment_summary: apparent KD of MS2 coat protein; designed switch direction (-1 OFF switch, 1 ON switch): -1; higher = weaker reporter binding
# condition_notes: input ligand: FMN 200 uM
Outcome label depends on apparent KD of MS2 coat protein relative to 100 nM: at/above gives YES, below gives NO.

Could you please find out whether CCAACCAGAGGAUAUGCGCAUAGAUCAGACUUUGUUUCUGAACAUGAGGAUCACCCAUGUAGAAGGCUGUAACC [Ex2 #86] (Eterna round: R97, puzzle: Exclusion 2) has apparent KD of MS2 coat protein that meets 100 nM or exceeds it?
NO

Record UAAGUUUACCGAGGAUAUGGUCCAUAAUUUUUACCAGAAGGCGGACUCAACAUGAGGAUCACCCAUGUAUAAAGGGUAUUUGGU [JR_ExcNG1_Sub046] (Eterna round: R96, puzzle: Exclusion NG 1) ; criterion: apparent KD of MS2 coat protein no lower than 100 nM. Met?
NO

Decide: is the reported value of apparent KD of MS2 coat protein for UUUUUCUCAGGAUAUACAUGAGGAUCACCCAUGUAUAUUAAAAAUAAUACAUGGGAAUGUAGAAGGGAGCUCAU [Omei Ex3 Pseudoloop 9] (Eterna round: R97, puzzle: Exclusion 3) equal to or greater than 100 nM?
YES

Confirm if apparent KD of MS2 coat protein reported for the sequence AGUUGGGCAGGAUAUACAUGAGGAUCACCCAUGUGAGAGAUACUAGUGAGGUCGAUUAGUAGAAGGGCCUGACA [Mat X3R4 m2] (Eterna round: R97, puzzle: Exclusion 3) is 100 nM or above.
YES

Is apparent KD of MS2 coat protein at least 100 nM? Consider CUAGUAUAUCAGGAUAUGAUUUUAUAUAGUGGAUCAGAAGGGAUAACAUGAGGAUCACCCAUGUUAAGGAGUGA [JR_Ex6_Sub041] (Eterna round: R97, puzzle: Exclusion 6)
YES

---

# Test system: MS2 coat protein
# experiment_summary: apparent KD of MS2 coat protein; designed switch direction (-1 OFF switch, 1 ON switch): -1; higher = weaker reporter binding
# condition_notes: input ligand: microRNA oligo, concentration not stated
measured_property: apparent KD of MS2 coat protein (nM)
Hi! Could you send only the number? It should be in nM, unit omitted.

AAACGGGUGUCCUCGUUUUCAACAUGAGGAUCACCCAUGUUCGAGGAUAUCCAAUAAGCUCUUCAGGAGAAGGCGAACAUAAAA [Anenence] (Eterna round: R96, puzzle: Exclusion NG 3) yielded apparent KD of MS2 coat protein of 13.3

For record GUGAGGGAGUGAGGAUAUCAGGGAGAUAAGAAAUGAGAAGGUACAUGAGGAUCACCCAUGUAAGAGUAGGGAAGAGAGAAGAGU [Default title] (Eterna round: R96, puzzle: Exclusion NG 1) the listed apparent KD of MS2 coat protein is 31.6

Field apparent KD of MS2 coat protein (entry CACCGUUAAGUAGGAUAUCGUACAUGAGGAUCACCCAUGUAAUAAAUGAGAAUUUCGGAUGUAUGCGAGAAGGACUAAAUCGGC [Ostricism 45 - Jieux - Exclusion NG 2] (Eterna round: R96, puzzle: Exclusion NG 2) ) reads 39

Per the records, this sequence ( CAGGAGUCACGAGGAUAUCUGGCUAAACGAACGAGAGAAGGUGUAGACUACCACAUGAGGAUCACCCAUGUUAUGACUAUACUA [Eternabot solution 30] (Eterna round: R96, puzzle: Exclusion NG 1) ) has apparent KD of MS2 coat protein equal to 9.94

---

Please go through the items and note down their apparent KD of MS2 coat protein.
# Tested on: MS2 coat protein
# experiment_summary: apparent KD of MS2 coat protein; designed switch direction (-1 OFF switch, 1 ON switch): 1; higher = weaker reporter binding
# condition_notes: Eterna round: R98; input ligand: none
Give just the number in nM; leave the unit off.

Query CUGUGGGCCAUAGGAUAUGCGCAGAAUUAGCAAGCAGAAGGGUGGAUCGGACAAUAAUAACUACAUGAGGAUCACCCAUGUGCU [Lelegeza] yields apparent KD of MS2 coat protein of 139

The value of apparent KD of MS2 coat protein measured for the sequence CCGUUGCAAAUAAAACAUGAGGAUCACCCAUGUGAGUCUCAUGAGGAUAUGCAGGUCAAAGACUUGCAGAAGGCAUGGCGACGG [Mat - Same State NG 3 - JL Mod - D67] turned out to be 1520

// field: apparent KD of MS2 coat protein; key: CCAGAUAUAUGAGGAUAUCGAGUGGAAUACACUCGAGAAGGUAUGUGAAAACAUGAGGAUCACCCAUGUGAUUAAUAAUCUGGA [SameState NG1 #1] ; value = 16.8

---

# Test system: MS2 coat protein
# experiment_summary: apparent KD of MS2 coat protein; designed switch direction (-1 OFF switch, 1 ON switch): -1; higher = weaker reporter binding
# condition_notes: input ligand: microRNA oligo, concentration not stated
Assign MET to entries whose apparent KD of MS2 coat protein meets or exceeds 20 nM; assign NOT MET to the rest.

Reported apparent KD of MS2 coat protein reaches at least 20 nM for UAACGUGGCCUGAUCCUCCCUAACAUGAGGAUCACCCAUGUCUAGGAUAUCCGAACAAACAACGAGGAGAAGGAGACGAAACAU [Veleedan] (Eterna round: R96, puzzle: Exclusion NG 3) ?
MET

hey, is apparent KD of MS2 coat protein for this one >= 20 nM? CGCCUCAGCACAUGAGGAUCACCCAUGUACAAAAGUCCCAGGGAGGAUAUCUGCUGGUUGACUAGAGAGAAGGCCCAUACUAAC [Eternabot solution 45] (Eterna round: R96, puzzle: Exclusion NG 3)
MET

# check: apparent KD of MS2 coat protein of ACGCGAGUAGGAGGAUAUUCUGAGCGCGGGCCAGAAGAAGGCCUAGAUCGUGAACAUGAGGAUCACCCAUGUGGGAUGAUCUAA [Vevexeaus] (Eterna round: R96, puzzle: Exclusion NG 1) is greater than or equal to 20 nM
MET

Could you verify whether the entry GAGAGAGACAUAGGAUAUUCACCCACACAUGAGGAAGAAGGAUGUAGACAUGAGGAUCACCCAUGUGGAUCACCCAUGUUUGUG [All by luck] (Eterna round: R96, puzzle: Exclusion NG 1) shows apparent KD of MS2 coat protein of no less than 20 nM?
NOT MET

State whether the measured apparent KD of MS2 coat protein reaches 20 nM, counting equality as reaching it, for AAAACAAACGAAGGAUAUGCGCGAAAAUGACUAGCAGAAGGUCGACACGGGCGGAUCCGACAUGAGGAUCACCCAUGUAAAACU [Tied] (Eterna round: R96, puzzle: Exclusion NG 1)
MET

Hey, just so you know, these numbers are from the supplement of paper PMC9170038.
